Measured cell viability change % (negative = cytotoxic) values are reported for all entries that follow.
- assay.protocol: A549 cell cytotoxicity, cytotoxicity control, plate reader, single point, cherry-pick (AID 743188)
- assay.conditions: at 25 µM
The list shows a part of the results.
Quick reminder: number only, in %, skip the unit.

Known results for compounds:
- molecular.string: "COc1ccc(/C=N/OCc2ccccc2C#N)c(OC)c1"
  reading: -7.58
- molecular.string: "Cc1cc(Cl)nc(NC(=O)Nc2cccc(Cl)c2)n1"
  reading: -1.39
- molecular.string: "COc1ccc(Nc2ncnc3sc(C)cc23)cc1"
  reading: -6.19
- molecular.string: "O=C(Nc1cccnc1Cl)c1cc(-c2ccccc2O)on1"
  reading: -9.75
- molecular.string: "C/C(=C\\C(=O)c1cccnc1)Nc1ccc(C)c(C)c1"
  reading: -3.61

For the next question, use this compound.
Prompt: Quickly give me recorded cell viability change % (negative = cytotoxic) for `CCS(=O)(=O)n1nc(-c2ccc(OC)cc2)nc1SC`
Response: -13.7
